Recorded pIC50 values for a group of compounds are listed next.
target: Voltage-gated inwardly rectifying potassium channel KCNH2 (Homo sapiens, UniProt Q12809)
Sequence (Q12809 whole entry): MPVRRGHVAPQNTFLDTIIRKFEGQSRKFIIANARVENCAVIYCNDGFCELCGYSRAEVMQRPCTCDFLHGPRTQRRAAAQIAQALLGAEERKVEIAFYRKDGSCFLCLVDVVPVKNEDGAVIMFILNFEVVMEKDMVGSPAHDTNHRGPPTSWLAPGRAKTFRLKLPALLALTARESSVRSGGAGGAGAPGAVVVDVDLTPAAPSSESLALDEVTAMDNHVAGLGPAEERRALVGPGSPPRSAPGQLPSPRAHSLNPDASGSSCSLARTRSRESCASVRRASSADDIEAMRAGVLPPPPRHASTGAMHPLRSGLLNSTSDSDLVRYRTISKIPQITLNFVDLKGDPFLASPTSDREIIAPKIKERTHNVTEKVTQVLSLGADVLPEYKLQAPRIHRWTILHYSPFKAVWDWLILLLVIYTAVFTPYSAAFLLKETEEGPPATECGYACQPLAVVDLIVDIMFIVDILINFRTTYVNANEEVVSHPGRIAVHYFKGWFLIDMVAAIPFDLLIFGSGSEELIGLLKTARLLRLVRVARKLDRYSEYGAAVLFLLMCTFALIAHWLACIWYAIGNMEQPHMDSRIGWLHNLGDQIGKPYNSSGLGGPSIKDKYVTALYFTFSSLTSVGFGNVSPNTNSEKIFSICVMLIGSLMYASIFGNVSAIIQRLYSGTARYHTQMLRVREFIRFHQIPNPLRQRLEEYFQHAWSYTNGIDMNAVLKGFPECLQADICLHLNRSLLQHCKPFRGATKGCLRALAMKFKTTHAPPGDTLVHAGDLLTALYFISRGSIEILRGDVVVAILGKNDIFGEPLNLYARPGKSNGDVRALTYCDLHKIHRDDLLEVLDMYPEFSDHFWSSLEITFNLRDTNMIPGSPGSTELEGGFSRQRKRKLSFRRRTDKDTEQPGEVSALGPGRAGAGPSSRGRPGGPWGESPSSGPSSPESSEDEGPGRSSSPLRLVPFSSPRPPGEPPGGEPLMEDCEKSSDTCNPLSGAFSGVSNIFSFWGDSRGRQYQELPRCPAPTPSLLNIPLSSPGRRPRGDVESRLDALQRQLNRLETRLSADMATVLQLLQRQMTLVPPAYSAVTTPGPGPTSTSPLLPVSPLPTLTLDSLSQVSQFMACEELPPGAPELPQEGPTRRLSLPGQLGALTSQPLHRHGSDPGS
pIC50: −log10 of the molar value.

Worked set:
# molecular_string, pIC50
rows = [
    ("NS(=O)(=O)c1ccc(Oc2ccc3ccc(=O)n(CCN4CCC(NCc5ccc6c(n5)NC(=O)CO6)CC4)c3n2)cc1", "< 4.00"),
    ("Cc1ncc(CNC2CCN(CCn3c(=O)ccc4ncc(Oc5ccc(S(N)(=O)=O)cc5)cc43)CC2)cc1C#N", "< 4.00"),
    ("COc1ccc2ccc(=O)n(CCN3CCC(NCc4ccc5c(n4)NC(=O)CO5)CC3)c2n1", 4.64),
    ("Cc1ncc(CNC2CCN(CCn3c(=O)ccc4ncc(Oc5ccc(S(N)(=O)=O)cc5)cc43)CC2)cc1Cl", 4.09),
    ("O=C1COc2ccc(CNC3CCN(CCn4c(=O)ccc5ccc(Oc6cncnc6)nc54)CC3)nc2N1", "< 3.65"),
]

// switching to the query compound
Record `Cc1cc2[nH]c(C3CCN(CCn4c(=O)ccc5ncc(Oc6ccc(S(N)(=O)=O)cc6)cc54)CC3)nc2cc1C#N` ; system Voltage-gated inwardly rectifying potassium channel KCNH2 (Homo sapiens, UniProt Q12809); pIC50 = < 4.48
